- Tested target: ATP-dependent translocase ABCB1 (Homo sapiens, UniProt P08183)
- Sequence (P08183 whole entry): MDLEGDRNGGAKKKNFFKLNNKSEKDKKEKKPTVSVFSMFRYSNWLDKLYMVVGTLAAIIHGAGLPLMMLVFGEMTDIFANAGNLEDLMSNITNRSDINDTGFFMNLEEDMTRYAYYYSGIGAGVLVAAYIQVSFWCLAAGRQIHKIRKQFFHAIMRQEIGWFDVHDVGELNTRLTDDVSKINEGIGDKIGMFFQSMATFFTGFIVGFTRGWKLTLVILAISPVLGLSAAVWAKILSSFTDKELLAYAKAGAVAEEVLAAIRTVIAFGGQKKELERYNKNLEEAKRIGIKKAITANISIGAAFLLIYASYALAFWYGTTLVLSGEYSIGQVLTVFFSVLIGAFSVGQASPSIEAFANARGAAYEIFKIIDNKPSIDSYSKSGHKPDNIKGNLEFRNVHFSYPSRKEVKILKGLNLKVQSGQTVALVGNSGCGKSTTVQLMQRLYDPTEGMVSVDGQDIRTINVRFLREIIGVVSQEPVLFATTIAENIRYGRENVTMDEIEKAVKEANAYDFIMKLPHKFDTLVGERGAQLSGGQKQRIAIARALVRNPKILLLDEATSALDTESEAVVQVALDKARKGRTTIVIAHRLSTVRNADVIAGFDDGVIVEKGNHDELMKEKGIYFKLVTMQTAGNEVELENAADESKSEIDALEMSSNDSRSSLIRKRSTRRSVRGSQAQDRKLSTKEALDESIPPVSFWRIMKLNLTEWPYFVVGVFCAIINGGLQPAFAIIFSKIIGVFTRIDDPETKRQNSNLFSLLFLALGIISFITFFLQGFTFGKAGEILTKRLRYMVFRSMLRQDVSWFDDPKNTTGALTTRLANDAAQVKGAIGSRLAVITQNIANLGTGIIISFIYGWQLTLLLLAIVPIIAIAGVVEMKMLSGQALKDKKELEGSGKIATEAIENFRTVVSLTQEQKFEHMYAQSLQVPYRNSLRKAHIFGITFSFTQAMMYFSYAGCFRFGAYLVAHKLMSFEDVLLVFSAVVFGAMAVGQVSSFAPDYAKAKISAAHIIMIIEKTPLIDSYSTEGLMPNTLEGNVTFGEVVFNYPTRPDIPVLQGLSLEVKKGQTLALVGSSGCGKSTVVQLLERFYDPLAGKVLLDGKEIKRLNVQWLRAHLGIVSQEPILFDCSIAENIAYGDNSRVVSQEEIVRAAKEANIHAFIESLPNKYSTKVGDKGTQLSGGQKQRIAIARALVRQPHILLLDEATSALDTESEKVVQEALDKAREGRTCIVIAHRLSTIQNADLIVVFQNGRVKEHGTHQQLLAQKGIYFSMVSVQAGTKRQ
- Assay comment: Inhibition of Pgp in multidrug-resistant human 2780AD cells assessed as vincristine accumulation at 10 ug/mL relative to verapamil
- Type: cell-based
- Set-up: scale not given: the % may be the effect or the level left
- Assay setup: a2780 adr
Quantity name: Activity (%)

# example entries with known answers
{"Structure": "C=C1[C@@H](OC(C)=O)CC[C@@]2(C)C[C@H](OC(=O)/C=C/c3ccccc3)C3=C(C)C[C@H](OC(C)=O)[C@@H]([C@@H](OC(C)=O)[C@H]12)C3(C)C", "Quantity name": "Activity", "Units text": "%", "Measured": 81}
{"Structure": "C=C1[C@@H](OC(C)=O)CC[C@@]2(C)C[C@H](OC(C)=O)C3=C(C)C[C@H](OC(C)=O)[C@@H]([C@@H](O)[C@H]12)C3(C)C", "Quantity name": "Activity", "Units text": "%", "Measured": 74}
{"Structure": "C=C1[C@@H](OC(C)=O)CC[C@@]2(C)C[C@H](O)C3=C(C)C[C@H](OC(C)=O)[C@@H]([C@@H](OC(C)=O)[C@H]12)C3(C)C", "Quantity name": "Activity", "Units text": "%", "Measured": 51}
{"Structure": "C=C1[C@@H](OC(C)=O)CC[C@@]2(C)C[C@H](OC(=O)/C=C/c3ccccc3)C3=C(C)C[C@H](OC(=O)/C=C/c4ccccc4)[C@@H]([C@@H](OC(C)=O)[C@H]12)C3(C)C", "Quantity name": "Activity", "Units text": "%", "Measured": 27}
{"Structure": "C=C1[C@@H](OC(C)=O)CC[C@@]2(C)C[C@H](OC(C)=O)C3=C(C)C[C@H](O)[C@@H]([C@@H](OC(C)=O)[C@H]12)C3(C)C", "Quantity name": "Activity", "Units text": "%", "Measured": 53}

(I) C=C1[C@@H](OC(C)=O)CC[C@@]2(C)C[C@H](OC(C)=O)C3=C(C)C[C@H](OC(=O)/C=C/c4ccccc4)[C@@H]([C@@H](OC(C)=O)[C@H]12)C3(C)C
(II) C=C1[C@@H](OC(C)=O)CC[C@@]2(C)C[C@H](O)C3=C(C)C[C@H](OC(=O)/C=C/c4ccccc4)[C@@H]([C@@H](OC(C)=O)[C@H]12)C3(C)C
(III) C=C1[C@@H](OC(C)=O)CC[C@@]2(C)[C@@H](O)[C@H](OC(C)=O)C3=C(C)C[C@H](OC(C)=O)[C@@H]([C@@H](OC(C)=O)[C@H]12)C3(C)C
Put the items in sequence by Activity, from largest down. Please write the labels in the order that was asked for.
II, I, III
